- experiment-notes: AUC (0 to 24 hrs) in human colon wall tissue at 5th AUC percentile curve
- Assay type: ADME, tissue-based
- Set-up: time < 24 hr
metric-name: AUC(0-t) at 24 h
State the value with its unit after it.

May I ask what AUC(0-t) at 24 h has been recorded for CN(C)c1cc(NC(=O)CNC(C)(C)C)c(O)c2c1C[C@H]1C[C@H]3[C@H](N(C)C)C(O)=C(C(N)=O)C(=O)[C@@]3(O)C(O)=C1C2=O [TIGECYCLINE] ?
1650 ng·h/mL

* * *

- experiment-notes: AUC (0 to 24 hrs) in human serum at 25th AUC percentile curve
- Format: ADME, cell-free
- Set-up: time < 24 hr
metric-name: AUC(0-t) at 24 h
State the value with its unit after it.

May I ask what AUC(0-t) at 24 h has been recorded for CN(C)c1cc(NC(=O)CNC(C)(C)C)c(O)c2c1C[C@H]1C[C@H]3[C@H](N(C)C)C(O)=C(C(N)=O)C(=O)[C@@]3(O)C(O)=C1C2=O [TIGECYCLINE] ?
5090 ng·h/mL
